- TEST: self-splicing fitness, log relative to wild type (ln ratio); higher = more splicing; Tetrahymena group I intron in knt gene, E. coli kanamycin selection, DiMSum; sequences stand for … in CUCUCU…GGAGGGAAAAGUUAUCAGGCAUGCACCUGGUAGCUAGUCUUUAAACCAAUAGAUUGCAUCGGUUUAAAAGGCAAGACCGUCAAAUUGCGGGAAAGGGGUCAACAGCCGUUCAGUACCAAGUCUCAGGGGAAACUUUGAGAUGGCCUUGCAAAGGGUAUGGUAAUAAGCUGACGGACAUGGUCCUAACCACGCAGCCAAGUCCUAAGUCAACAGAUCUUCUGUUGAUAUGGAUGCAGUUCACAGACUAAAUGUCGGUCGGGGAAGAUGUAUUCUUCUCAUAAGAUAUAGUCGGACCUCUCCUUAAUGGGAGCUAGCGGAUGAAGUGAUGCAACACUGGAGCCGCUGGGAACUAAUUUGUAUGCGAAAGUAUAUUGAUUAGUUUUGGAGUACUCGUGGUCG;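 also: selection with 25 µg/mL kanamycin versus none on LB agar overnight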
- EXPERIMENTAL_SETUP: 30 °C
Listed here: items and their measured self-splicing fitness (ln).
I'd appreciate a reply containing only the number, no unit.

chain=CUCGAGCAAUAUUACGACCA result_value=-3.07

Look up self-splicing fitness (ln): GAGCAGCAAUAUUACGUACC
-0.46

Look up self-splicing fitness (ln): UUGGAGCAAUAUUACGUCAG
-2.63

Look up self-splicing fitness (ln): UGAGAGCAAUAUUACGUAAA
-4.31

Look up self-splicing fitness (ln): GACUAGCAAUAUUACGGAAA
-1.53

Look up self-splicing fitness (ln): CUCCAGCAAUAUUACGCGAA
-3.06

Look up self-splicing fitness (ln): UUAAAGCAAUAUUACGGCCC
-1.67

Look up self-splicing fitness (ln): ACGCAGCAAUAUUACGCCGC
-3.68

Look up self-splicing fitness (ln): GGGGAGCAAUAUUACGUUAC
-3.54

Look up self-splicing fitness (ln): UGUAAGCAAUAUUACGCAUG
-1.95

Look up self-splicing fitness (ln): UACCAGCAAUAUUACGAACU
-2.26

Look up self-splicing fitness (ln): CCGAAGCAAUAUUACGAGUG
-0.855

Look up self-splicing fitness (ln): ACUGAGCAAUAUUACGGUGU
-3.14

Look up self-splicing fitness (ln): CCCCAGCAAUAUUACGGAGU
-4.02

Look up self-splicing fitness (ln): GGAAAGCAAUAUUACGGUCU
-2.31

Look up self-splicing fitness (ln): GUCCAGCAAUAUUACGGCUG
-3.93

Look up self-splicing fitness (ln): UUACAGCAAUAUUACGAAUU
-3.13

Look up self-splicing fitness (ln): AAGGAGCAAUAUUACGACCG
-2.16

Look up self-splicing fitness (ln): ACAGAGCAAUAUUACGACAG
-3.72

Look up self-splicing fitness (ln): CGCCAGCAAUAUUACGCGGG
-4.25

Look up self-splicing fitness (ln): AAGAAGCAAUAUUACGUUUG
-2.45

Look up self-splicing fitness (ln): GGUGAGCAAUAUUACGAGCA
-0.652

Look up self-splicing fitness (ln): GCCAAGCAAUAUUACGUUUC
-2.86

====

- TEST: self-splicing fitness, log relative to wild type (ln ratio); higher = more splicing; Tetrahymena group I intron in knt gene, E. coli kanamycin selection, DiMSum; sequences stand for … in CUCUCU…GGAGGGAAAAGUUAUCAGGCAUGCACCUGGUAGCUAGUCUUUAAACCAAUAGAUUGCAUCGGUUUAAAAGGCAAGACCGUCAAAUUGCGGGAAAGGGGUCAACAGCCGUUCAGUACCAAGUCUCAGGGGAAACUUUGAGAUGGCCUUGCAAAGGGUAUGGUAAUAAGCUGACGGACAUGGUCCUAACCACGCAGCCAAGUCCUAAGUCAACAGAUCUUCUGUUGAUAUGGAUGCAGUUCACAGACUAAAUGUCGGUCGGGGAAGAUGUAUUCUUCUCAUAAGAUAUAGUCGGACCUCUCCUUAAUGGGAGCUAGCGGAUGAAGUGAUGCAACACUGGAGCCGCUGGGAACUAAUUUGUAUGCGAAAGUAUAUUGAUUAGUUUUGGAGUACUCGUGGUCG
- EXPERIMENTAL_SETUP: 30 °C
METRIC_NAME: self-splicing fitness (ln)
I'd appreciate a reply containing only the number, no unit.

Examples with answers:
chain=UCAUAGCAAUAUUACGUUGG result_value=-4.13
chain=UCACAGCAAUAUUACGUGUA result_value=-2.2

Look up self-splicing fitness (ln): CGGCAGCAAUAUUACGACAU
-3.3

====

- TEST: self-splicing fitness, log relative to wild type (ln ratio); higher = more splicing; Tetrahymena group I intron in knt gene, E. coli kanamycin selection, DiMSum; sequences stand for … in CUCUCU…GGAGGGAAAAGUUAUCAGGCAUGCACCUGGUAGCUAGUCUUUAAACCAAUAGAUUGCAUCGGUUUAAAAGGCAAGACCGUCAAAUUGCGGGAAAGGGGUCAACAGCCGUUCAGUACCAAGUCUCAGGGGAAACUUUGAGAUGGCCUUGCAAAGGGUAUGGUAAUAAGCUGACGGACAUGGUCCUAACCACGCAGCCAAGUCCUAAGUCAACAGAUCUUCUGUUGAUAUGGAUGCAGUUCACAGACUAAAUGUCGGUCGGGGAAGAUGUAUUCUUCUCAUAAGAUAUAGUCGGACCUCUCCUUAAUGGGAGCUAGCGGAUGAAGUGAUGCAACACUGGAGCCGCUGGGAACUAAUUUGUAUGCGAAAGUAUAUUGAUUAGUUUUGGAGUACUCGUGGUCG
- EXPERIMENTAL_SETUP: 37 °C
METRIC_NAME: self-splicing fitness (ln)
I'd appreciate a reply containing only the number, no unit.

Examples with answers:
chain=AUCUAGCAAUAUUACGUGAU result_value=-2.25
chain=AUGAAGCAAUAUUACGCCAC result_value=-1.9
chain=AUAAAGCAAUAUUACGGCAG result_value=-0.0772
chain=CUGUAGCAAUAUUACGUAGU result_value=-2.65

Look up self-splicing fitness (ln): GAGGAGCAAUAUUACGUUGG
-1.46

Look up self-splicing fitness (ln): GACGAGCAAUAUUACGUAUU
-2.44

Look up self-splicing fitness (ln): AAAGAGCAAUAUUACGAAUU
-2.28

====

- TEST: self-splicing fitness, log relative to wild type (ln ratio); higher = more splicing; Tetrahymena group I intron in knt gene, E. coli kanamycin selection, DiMSum; sequences stand for … in CUCUCU…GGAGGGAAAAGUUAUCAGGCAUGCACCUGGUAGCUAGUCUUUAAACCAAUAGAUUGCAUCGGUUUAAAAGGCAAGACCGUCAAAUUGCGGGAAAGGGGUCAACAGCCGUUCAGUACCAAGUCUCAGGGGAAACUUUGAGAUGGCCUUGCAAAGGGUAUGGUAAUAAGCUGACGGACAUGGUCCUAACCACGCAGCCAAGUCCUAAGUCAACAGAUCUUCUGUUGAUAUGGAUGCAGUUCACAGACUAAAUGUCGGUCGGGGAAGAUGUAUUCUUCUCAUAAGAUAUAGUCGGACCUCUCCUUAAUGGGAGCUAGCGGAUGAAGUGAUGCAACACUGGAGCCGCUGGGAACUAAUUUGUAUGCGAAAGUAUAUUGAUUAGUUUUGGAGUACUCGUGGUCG
- EXPERIMENTAL_SETUP: 37 °C
Listed here: items and their measured self-splicing fitness (ln).
I'd appreciate a reply containing only the number, no unit.

Examples with answers:
chain=CUGUAGCAAUAUUACGGAUU result_value=-2.7
chain=UCUGAGCAAUAUUACGCUGG result_value=-1.11
chain=AAAAAGCAAUAUUACGCAAG result_value=-0.583

Look up self-splicing fitness (ln): GUGGAGCAAUAUUACGGGUU
-3.15

Look up self-splicing fitness (ln): UGAAAGCAAUAUUACGCUUA
-0.254

Look up self-splicing fitness (ln): AGCAAGCAAUAUUACGUACC
0.398

====

Listed here: items and their measured self-splicing fitness (ln).
- TEST: self-splicing fitness, log relative to wild type (ln ratio); higher = more splicing; Tetrahymena group I intron in knt gene, E. coli kanamycin selection, DiMSum; sequences stand for … in CUCUCU…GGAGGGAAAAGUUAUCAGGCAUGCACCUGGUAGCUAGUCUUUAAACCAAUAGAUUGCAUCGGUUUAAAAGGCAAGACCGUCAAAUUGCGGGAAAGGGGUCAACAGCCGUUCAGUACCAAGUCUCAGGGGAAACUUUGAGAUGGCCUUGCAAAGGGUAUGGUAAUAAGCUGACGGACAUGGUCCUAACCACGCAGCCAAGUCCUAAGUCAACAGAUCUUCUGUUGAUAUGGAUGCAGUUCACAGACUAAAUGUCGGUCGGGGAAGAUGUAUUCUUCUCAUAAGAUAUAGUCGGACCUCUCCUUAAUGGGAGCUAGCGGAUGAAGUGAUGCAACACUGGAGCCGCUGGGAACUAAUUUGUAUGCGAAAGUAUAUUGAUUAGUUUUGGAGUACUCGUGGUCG
- EXPERIMENTAL_SETUP: 37 °C
I'd appreciate a reply containing only the number, no unit.

Examples with answers:
chain=AGUGAGCAAUAUUACGCAGG result_value=-2.65
chain=UGCAAGCAAUAUUACGCGAA result_value=-0.581
chain=UUGAAGCAAUAUUACGACCC result_value=-0.772
chain=UUGGAGCAAUAUUACGAUGU result_value=-1.83

Look up self-splicing fitness (ln): CGAUAGCAAUAUUACGGUCA
0.228

Look up self-splicing fitness (ln): CCCAAGCAAUAUUACGGCGG
-2.08
